System: redroot pigweed (Amaranthus retroflexus, AMARE)
Assay Procedure: Post-emerge greenhouse herbicide test, phytotoxicity rating
Assay type: in vivo
Condition Set: 63 g al/ha, 14 days after application
Reported Property: AMARE phytotoxicity rating (0-100)
# output: bare number, no unit

Worked set:
response.value for Cn1c(C(F)(F)F)nc(-c2cc(Oc3ncccn3)c(Cl)cc2F)c1Cl [Compound 2-3] (field: AMARE phytotoxicity rating (0-100)) = 100

response.value for Cn1c(C(F)(F)F)nc(-c2cc(Oc3ncccc3[N+](=O)[O-])c(Cl)cc2F)c1Cl [Compound 2-1] (field: AMARE phytotoxicity rating (0-100)) = 90

response.value for Cc1nsc(Oc2cc(-n3nnn(CCCF)c3=O)c(F)cc2Cl)c1[N+](=O)[O-] [Compound 6-17] (field: AMARE phytotoxicity rating (0-100)) = 0

response.value for O=c1n(CCCF)nnn1-c1cc(Oc2ncccn2)c(Cl)cc1F [Compound 6-10] (field: AMARE phytotoxicity rating (0-100)) = 90

response.value for O=c1sc(=Nc2cc(Oc3ncccn3)c(Cl)cc2F)n2n1CCCC2 [Compound 7-2] (field: AMARE phytotoxicity rating (0-100)) = 100

response.value for CC(=O)Nc1ccc(Oc2cc(-n3c(=O)n4n(c3=S)CCCC4)c(F)cc2Cl)c(C(F)(F)F)c1 [Compound 8-16] (field: AMARE phytotoxicity rating (0-100)) = 90

response.value for O=c1n(CCCF)nnn1-c1cc(Oc2ncccc2C(F)(F)F)c(Cl)cc1Cl [Compound 6-7] (field: AMARE phytotoxicity rating (0-100)) = 70

response.value for O=c1n(CCCF)nnn1-c1cc(Oc2ncccc2[N+](=O)[O-])c(Cl)cc1F [Compound 6-2] (field: AMARE phytotoxicity rating (0-100)) = 40

Consider the additional compound presented here.
response.value for N#Cc1cccnc1Oc1cc(-n2nnn(CCCF)c2=O)c(Cl)cc1Cl [Compound 6-5] (field: AMARE phytotoxicity rating (0-100)) = 40
